- experimentalProtocol: yeast display, Sf9 membrane polyspecificity reagent, FACS + sequencing; frameworks hold sequencing errors
measurementLabel: polyreactivity (PSR sort gate)

QFQLVESGGGLVQAGGSLRLSCAASALIFTPNAMGSYIPAPGKESELVAAISSSGRTSYADSVKGRFTISRDNAKNAVYLQMNSLKPEDTAVYYSNATWRWTRRGYVYWGQGTQVTLSS
low polyreactivity
QVQLVESGGGLVQAGGSLRLSCAASGSIFRRYAMGWYRQAPGKEREFVAAITRSGGGTYYADSVKGRFTISRDNAKNTVYLQMNSLKPEDTAVYYCAKDVFVQRSRYPEGDYWGQGTQVTVSS
high polyreactivity
QVQLVESGGGLVQAGGSLRLSCAASGGTLYRYAMGWYRQAPGKERELVAGISSSGGRTYNADSVKGRFTISRDNAKNTVYLQMNSLIPEDTAVYYCAKYWVSSYDYWGQGTQVTVSS
high polyreactivity
QVQLVESGGGLVQAGGSLRLSCAASGSTFYGNAMGWYRQAPGKERELVAAITGDGGSTYYADSVKGRFTISRDNAKNTVYLQMNSLKPEDTAVYYCAVDVIVLGQWPGQLDEFDYWGQGTQVTVSS
low polyreactivity
QVQLGESGGGLVQAGGSLRLSCAASGYIFRIYAMGGYRQAPGKERELVAAISRSGGSTSYADSVKGRFTISRDTAKNTVYLQMNSLKPEDTAVYYCATEIRPSRIAQYDYWGQGTQVTVSS
high polyreactivity

Would you mind telling me what polyreactivity (PSR sort gate) value was observed for "QFQLVESGGGLVQAGGSLRLSCAASGRIFHSNAMGWYRQAPGKERELVAAITWSTGRTYYADSVKGRFTISRDNAKNTVYLQMNSLKPEDTAVYYCFRFSYYTGDYWGQGTQVTVSS" ? high polyreactivity

Recorded polyreactivity (PSR sort gate) for "QVQLVESGGGLVQAGGSLRLSCAASGSTFYKYAMGWYRQAPGKERELVAVINYRGGSTYYADSVKGRFTISRDNAKNTVYLQMNSLKPEDTAVYYCAARQYWQNRRQYYYWGQGTQVTVSS" , please? high polyreactivity

Could you tell me which polyreactivity (PSR sort gate) is on file for "QVQLVESGGGLVQAGGSLRLSCAASGSIFVLYAMGWYRQAPGKERELVAAITSGASTNYADSVKGRFTISRDNAKNTVYLQMNSLKPEDTAVYYCNTGSRLDRVDSWGQGTQVTVSS" ? low polyreactivity

Please report the recorded polyreactivity (PSR sort gate) for "QVQLVESGGGLVQAGGSLRLSCAASGFIFRWNAMGWYRQAPGKERELVAAITSGGGTNYADSVKGRFTISRDNAKNTVYLQMNSLKPEDTAVYYCNASYRRYSNYYKYGYWGQGTQVTVSS" . high polyreactivity

Consider the sequence "QVQLVESGGGLVQAGGSLRLSCAASGSIFSYYAMGWSRQAPGKERELVAAISWGDDSTYYADSVKGRFTISRDNAKNTVYLQMNSLKPEDTAVYYCAADRVGWYRTFDYWGQGTQVTVSS" and give its measured polyreactivity (PSR sort gate). low polyreactivity

Any idea what its polyreactivity (PSR sort gate) is? The sequence is "QVQLVESGGGLVQAGGSLRLSCAASGIIFYKYSMGWYRQAPGKERELVAAITSGGGRTYYADSVKGRFTISRDNAKITVDLQMNSLKPEDTAVYYCAATRPATYAAYDYWGQGTQVTVSS" high polyreactivity

Name the reported polyreactivity (PSR sort gate) value associated with the sequence "QVQLVESGGGLVQAGGSLRLSCAASGIIFGLNAMGWYRQAPGKERELVAAIRRRGGSTYYADSVKGRYTISRDNAKTTVYLQMNSLKPEDTAVYYCAAAGGRYSRAAYDYWGQGTQVTVSS" low polyreactivity
